Target: Na^+/H^+ exchange in cells (Rattus norvegicus, UniProt P26431)
Construct: The cells were dissociated by gentle strokes, and the resulting suspension was filtrated through six layers of surgical gauze
Sequence (P26431 whole entry): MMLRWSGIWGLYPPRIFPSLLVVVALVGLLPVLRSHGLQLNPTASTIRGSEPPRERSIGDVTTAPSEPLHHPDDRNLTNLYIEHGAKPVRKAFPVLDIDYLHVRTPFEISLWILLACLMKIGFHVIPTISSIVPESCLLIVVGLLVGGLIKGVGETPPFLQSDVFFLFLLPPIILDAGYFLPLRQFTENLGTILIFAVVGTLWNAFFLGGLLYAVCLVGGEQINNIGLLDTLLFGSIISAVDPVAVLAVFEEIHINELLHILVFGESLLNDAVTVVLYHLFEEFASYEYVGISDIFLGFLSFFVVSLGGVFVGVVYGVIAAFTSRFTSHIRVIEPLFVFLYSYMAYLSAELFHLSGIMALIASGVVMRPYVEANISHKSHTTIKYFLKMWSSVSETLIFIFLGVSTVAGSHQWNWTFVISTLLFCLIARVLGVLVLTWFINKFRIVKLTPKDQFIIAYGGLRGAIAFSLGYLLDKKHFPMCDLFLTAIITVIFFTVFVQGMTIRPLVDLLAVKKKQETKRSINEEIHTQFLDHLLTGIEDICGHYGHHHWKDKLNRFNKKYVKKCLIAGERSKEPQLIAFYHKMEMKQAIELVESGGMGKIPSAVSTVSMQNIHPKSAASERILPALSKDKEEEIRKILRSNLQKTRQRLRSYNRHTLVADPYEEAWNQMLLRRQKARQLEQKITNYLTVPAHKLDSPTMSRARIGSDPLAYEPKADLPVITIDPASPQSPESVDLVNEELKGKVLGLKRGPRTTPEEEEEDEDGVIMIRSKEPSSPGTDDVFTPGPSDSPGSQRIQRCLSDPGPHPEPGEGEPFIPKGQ
Test: Inhibitory activity on Na^+/H^+ exchange in cells
Conditions: rat (male SD) thymus cells; initial increase in intracellular pH (BCECF fluorescence) after adding NaCl (final 100 mM), 37° C.
pIC50: −log10 of the molar value. Structures can show the parent of a compound that is named as a salt.

Molecule	pIC50
N=C(N)NC(=O)C1=Cc2cccc(/C=C/C(=O)O)c2OCC1 [(a), hydrochloride]	> 7.00

Reference source: patent US6346527B1
